biological target: DNA topoisomerase 1 (Homo sapiens); assay: Topoisomerase I […] was evaluated by Fluorescence assay using Ethidium Bromide after heat denaturation of pBR322 DNA at concentration 100 uM; details: Escherichia coli
measured.metric: Change (%)

1. COC(=O)c1cc(NC(=O)Cn2cc(C3=C(c4c[nH]c5ccccc45)C(=O)NC3=O)c3ccccc32)cn1C :: 14
2. COC(=O)c1cc(NC(=O)c2cc(NC(=O)Cn3cc(C4=C(c5c[nH]c6ccccc56)C(=O)NC4=O)c4ccccc43)cn2C)cn1C :: 15
3. COC(=O)c1cc(NC(=O)c2cc(NC(=O)c3cc(NC(=O)Cn4cc(C5=C(c6c[nH]c7ccccc67)C(=O)NC5=O)c5ccccc54)cn3C)cn2C)cn1C :: 17

----------
Item-by-item account of inhibition
molecular target: DNA topoisomerase 1 (Homo sapiens) (UniProt P11387); test: Topoisomerase I DNA relaxation activity was evaluated by Agarose Gel Electrophoresis test at concentration 25 uM; details: Escherichia coli; at 25 µM
Sequence (P11387 whole entry): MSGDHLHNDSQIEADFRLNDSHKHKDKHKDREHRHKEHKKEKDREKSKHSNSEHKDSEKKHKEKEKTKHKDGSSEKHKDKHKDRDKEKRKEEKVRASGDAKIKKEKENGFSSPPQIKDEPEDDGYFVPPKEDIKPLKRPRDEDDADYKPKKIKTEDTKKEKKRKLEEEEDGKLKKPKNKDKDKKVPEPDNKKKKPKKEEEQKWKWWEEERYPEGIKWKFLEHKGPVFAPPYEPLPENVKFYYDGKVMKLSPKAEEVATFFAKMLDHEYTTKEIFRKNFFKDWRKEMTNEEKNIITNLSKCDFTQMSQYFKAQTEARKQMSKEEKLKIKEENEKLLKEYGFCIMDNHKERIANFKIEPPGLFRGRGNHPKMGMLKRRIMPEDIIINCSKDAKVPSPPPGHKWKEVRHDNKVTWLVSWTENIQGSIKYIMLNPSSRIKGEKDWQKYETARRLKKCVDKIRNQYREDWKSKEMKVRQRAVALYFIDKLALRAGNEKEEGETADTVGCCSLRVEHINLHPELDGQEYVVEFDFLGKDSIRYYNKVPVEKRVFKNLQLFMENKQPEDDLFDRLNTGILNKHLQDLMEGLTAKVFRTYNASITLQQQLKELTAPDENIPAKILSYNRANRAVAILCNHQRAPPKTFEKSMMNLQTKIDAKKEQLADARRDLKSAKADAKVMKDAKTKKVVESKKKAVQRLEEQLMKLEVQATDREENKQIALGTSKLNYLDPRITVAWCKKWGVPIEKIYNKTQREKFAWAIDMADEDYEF
measured.metric: inhibition (%)

1. COC(=O)c1cc(NC(=O)c2cc(NC(=O)Cn3cc(C4=C(c5c[nH]c6ccccc56)C(=O)NC4=O)c4ccccc43)cn2C)cn1C :: 0
2. COC(=O)c1cc(NC(=O)c2cc(NC(=O)c3cc(NC(=O)Cn4cc(C5=C(c6c[nH]c7ccccc67)C(=O)NC5=O)c5ccccc54)cn3C)cn2C)cn1C :: 0
3. CN(C)CCCNC(=O)c1cc(NC(=O)Cn2cc(C3=C(c4c[nH]c5ccccc45)C(=O)NC3=O)c3ccccc32)cn1C :: 0
